Provide the recorded pIC50 for the entries that follow.
# system-name: Human nerve growth factor receptor (Homo sapiens)
# Sequence (P04629 33-796): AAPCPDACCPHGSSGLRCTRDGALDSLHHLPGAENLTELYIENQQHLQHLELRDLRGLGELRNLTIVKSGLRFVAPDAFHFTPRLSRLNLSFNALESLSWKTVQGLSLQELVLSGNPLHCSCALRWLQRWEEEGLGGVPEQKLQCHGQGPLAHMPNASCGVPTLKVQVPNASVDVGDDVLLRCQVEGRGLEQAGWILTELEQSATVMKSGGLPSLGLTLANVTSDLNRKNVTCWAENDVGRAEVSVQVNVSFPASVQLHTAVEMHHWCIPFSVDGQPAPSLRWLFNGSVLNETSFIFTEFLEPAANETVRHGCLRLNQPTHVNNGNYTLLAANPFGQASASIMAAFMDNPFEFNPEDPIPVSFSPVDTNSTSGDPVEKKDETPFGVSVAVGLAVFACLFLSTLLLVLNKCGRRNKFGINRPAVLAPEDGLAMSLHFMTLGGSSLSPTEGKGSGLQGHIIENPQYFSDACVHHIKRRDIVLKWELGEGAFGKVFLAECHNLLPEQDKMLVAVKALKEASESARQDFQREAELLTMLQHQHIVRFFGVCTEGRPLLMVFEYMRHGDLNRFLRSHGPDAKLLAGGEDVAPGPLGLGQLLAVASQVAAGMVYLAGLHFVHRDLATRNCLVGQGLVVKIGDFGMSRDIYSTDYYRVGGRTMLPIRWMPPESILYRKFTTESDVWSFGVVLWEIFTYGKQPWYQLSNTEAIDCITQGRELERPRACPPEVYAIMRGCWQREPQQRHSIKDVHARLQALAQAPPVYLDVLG
# assay-summary: Receptor inhibitory activity using cells expressing a nerve growth factor receptor (NGF-dependent intracellular Ca increase, FLIPR)
# applied-conditions: HEK293 cells stably expressing Human nerve growth factor receptor; NGF about 100 to 150 ng/ml; Ca concentration change
Give bare numbers, as −log10 of the molar value.

Each compound below has a reported value. Please supply its pIC50.
1. NC(=O)C1CCN(c2ccccc2NC(=O)c2csc(-c3ccoc3)n2)CC1 [Example 662]
2. NC(=O)CN1CCN(c2ccccc2NC(=O)c2csc(N3CCOCC3)n2)CC1 [Example 151]
3. COCCN(C)c1nc(C(=O)Nc2ccccc2N2CCN(CC(N)=O)CC2)cs1.Cl [Example 356, hydrochloride]
4. NC(=O)CN1CCN(c2c(F)cccc2NC(=O)c2csc(N3CCC(O)CC3)n2)CC1 [Example 311]

Ans.
[8.62, 7.96, 8.06, 8.59]
